- target-system: recombinant human ACC2 (Homo sapiens (Human), UniProt O00763)
- Sequence (O00763 27-2458): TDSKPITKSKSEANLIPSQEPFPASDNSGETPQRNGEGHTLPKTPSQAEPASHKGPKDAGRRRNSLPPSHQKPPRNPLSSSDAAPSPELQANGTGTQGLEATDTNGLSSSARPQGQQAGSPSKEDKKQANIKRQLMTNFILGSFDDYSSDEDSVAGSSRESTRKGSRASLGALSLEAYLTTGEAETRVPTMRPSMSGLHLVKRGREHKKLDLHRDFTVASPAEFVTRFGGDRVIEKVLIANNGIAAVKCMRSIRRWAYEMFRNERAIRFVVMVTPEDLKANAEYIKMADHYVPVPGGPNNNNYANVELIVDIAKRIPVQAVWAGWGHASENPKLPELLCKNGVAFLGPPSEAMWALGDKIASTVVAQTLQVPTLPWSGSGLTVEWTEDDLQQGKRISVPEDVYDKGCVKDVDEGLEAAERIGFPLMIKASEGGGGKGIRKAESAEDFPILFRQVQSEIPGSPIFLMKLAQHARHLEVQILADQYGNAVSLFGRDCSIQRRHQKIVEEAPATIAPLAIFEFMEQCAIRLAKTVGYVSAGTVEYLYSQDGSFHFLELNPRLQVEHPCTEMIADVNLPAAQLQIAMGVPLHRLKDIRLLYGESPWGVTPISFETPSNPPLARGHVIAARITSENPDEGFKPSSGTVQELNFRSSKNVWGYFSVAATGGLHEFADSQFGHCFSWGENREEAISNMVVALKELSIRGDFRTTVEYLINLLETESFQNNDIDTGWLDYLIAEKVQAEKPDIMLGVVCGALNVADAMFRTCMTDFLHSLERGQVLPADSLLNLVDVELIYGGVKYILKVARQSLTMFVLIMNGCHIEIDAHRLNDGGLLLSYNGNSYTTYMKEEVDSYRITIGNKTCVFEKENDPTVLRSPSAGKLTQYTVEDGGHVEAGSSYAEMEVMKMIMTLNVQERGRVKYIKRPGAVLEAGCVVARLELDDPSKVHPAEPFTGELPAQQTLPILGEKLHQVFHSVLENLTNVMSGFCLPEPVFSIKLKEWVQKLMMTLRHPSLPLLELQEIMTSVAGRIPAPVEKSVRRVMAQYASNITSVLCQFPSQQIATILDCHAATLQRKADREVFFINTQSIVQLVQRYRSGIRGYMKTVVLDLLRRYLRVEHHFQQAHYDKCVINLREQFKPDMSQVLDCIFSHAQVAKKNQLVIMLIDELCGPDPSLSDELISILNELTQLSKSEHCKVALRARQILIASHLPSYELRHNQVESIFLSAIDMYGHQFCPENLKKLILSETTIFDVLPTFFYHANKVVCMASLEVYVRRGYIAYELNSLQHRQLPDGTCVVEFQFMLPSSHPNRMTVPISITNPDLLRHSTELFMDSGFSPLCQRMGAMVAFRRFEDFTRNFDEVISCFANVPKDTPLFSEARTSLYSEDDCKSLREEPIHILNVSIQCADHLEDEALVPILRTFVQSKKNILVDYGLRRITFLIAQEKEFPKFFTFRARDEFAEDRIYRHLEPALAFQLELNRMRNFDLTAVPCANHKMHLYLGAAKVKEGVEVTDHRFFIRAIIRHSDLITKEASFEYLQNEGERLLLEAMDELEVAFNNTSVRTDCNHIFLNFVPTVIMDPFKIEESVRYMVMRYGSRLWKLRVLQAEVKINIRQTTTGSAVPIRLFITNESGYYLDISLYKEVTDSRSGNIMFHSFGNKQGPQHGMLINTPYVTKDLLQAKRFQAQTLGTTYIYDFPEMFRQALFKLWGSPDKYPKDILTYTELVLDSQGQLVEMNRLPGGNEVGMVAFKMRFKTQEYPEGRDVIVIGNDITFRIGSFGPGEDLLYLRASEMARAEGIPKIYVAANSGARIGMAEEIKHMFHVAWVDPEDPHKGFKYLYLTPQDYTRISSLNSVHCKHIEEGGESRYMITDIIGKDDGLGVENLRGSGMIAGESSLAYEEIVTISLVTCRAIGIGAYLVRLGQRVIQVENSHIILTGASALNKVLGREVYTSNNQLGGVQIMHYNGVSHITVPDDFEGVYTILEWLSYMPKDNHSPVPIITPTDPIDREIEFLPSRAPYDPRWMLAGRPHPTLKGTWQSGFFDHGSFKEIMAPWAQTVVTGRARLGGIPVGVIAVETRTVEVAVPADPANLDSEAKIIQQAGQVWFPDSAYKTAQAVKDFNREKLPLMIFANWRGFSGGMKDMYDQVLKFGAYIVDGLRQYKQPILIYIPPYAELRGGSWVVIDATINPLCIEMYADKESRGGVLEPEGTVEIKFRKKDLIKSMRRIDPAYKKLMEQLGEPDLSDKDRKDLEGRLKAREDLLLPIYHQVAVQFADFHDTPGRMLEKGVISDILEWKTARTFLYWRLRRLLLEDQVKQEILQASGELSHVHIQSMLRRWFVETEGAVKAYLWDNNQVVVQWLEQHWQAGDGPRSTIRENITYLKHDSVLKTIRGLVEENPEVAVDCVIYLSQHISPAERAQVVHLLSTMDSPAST
- assay-comment: Measurement of inhibitory activity on human ACC2 (MALDI-TOF MS, acetyl CoA to malonyl CoA conversion)
- Format: biochemical
- assay-context: Tables 155-159
Listing: IC50 of selected compounds

{"compound": "CC(=O)N[C@@H](C)CO[C@H]1C[C@H](COc2ncnc3c2ccn3Cc2cccnc2)C1 [Compound I-434]", "IC50 (nM)": 653}
{"compound": "C[C@@H](CO[C@H]1CC[C@H](Oc2cc3sc(OCC4CC4(F)F)nc3cn2)CC1)NC(=O)CO (stereo partly drawn) [Compound I-290]", "IC50 (nM)": 82}
{"compound": "CC(=O)N[C@@H](C)CO[C@H]1C[C@H](COc2ccc3nc(N4CC(F)C4)sc3n2)C1 [Compound I-256]", "IC50 (nM)": 39}
{"compound": "CC(=O)N[C@@H](C)CO[C@H]1C[C@H](COc2ncnc(COc3ccccc3)c2Cl)C1 [Compound I-429]", "IC50 (nM)": 26}
{"compound": "CC(=O)N[C@@H](C)CO[C@H]1C[C@H](COc2nccc(OCC3(C#N)CC3)c2Cl)C1 [Compound I-371]", "IC50 (nM)": 198}
{"compound": "CC(=O)N[C@@H](C)CO[C@H]1C[C@H](COc2ccc3nc(OC4CCOCC4)sc3n2)C1 [Compound I-243]", "IC50 (nM)": 28}

----------
List of log10(IC50) values.
- target-system: recombinant human ACC2 (Homo sapiens (Human), UniProt O00763)
- assay-comment: Measurement of inhibitory activity on human ACC2 (MALDI-TOF MS, acetyl CoA to malonyl CoA conversion)
- Type: biochemical
- assay-context: Tables 155-159
test-readout: log10(IC50) (log10 of the value in nM)

{"smiles-data": "CC(=O)N[C@@H](C)CO[C@H]1C[C@H](COc2ncnc3c2ccn3C2CCCCC2)C1", "target-system": "recombinant human ACC2 (Homo sapiens (Human), UniProt O00763)", "test-value": 1.60}
{"smiles-data": "CCOC(=O)c1cc(C(=O)N[C@@H](C)CO[C@H]2CC[C@H](Oc3ncc(-c4ncc(F)cn4)cc3F)CC2)ccn1", "target-system": "recombinant human ACC2 (Homo sapiens (Human), UniProt O00763)", "test-value": 1.96}
{"smiles-data": "CCC(O)(CC)c1nc2ccc(O[C@H]3CC[C@H](OC[C@H](C)NC(C)=O)CC3)c(F)c2s1", "target-system": "recombinant human ACC2 (Homo sapiens (Human), UniProt O00763)", "test-value": 2.28}
{"smiles-data": "CC(=O)N[C@@H](C)CO[C@H]1C[C@H](COc2ncnc(OCc3ncc(F)s3)c2Cl)C1", "target-system": "recombinant human ACC2 (Homo sapiens (Human), UniProt O00763)", "test-value": 1.08}
{"smiles-data": "CC(=O)N[C@@H](C)CO[C@H]1C[C@H](COc2ccc3nc(N4CCCCC4)sc3n2)C1", "target-system": "recombinant human ACC2 (Homo sapiens (Human), UniProt O00763)", "test-value": 1.20}
{"smiles-data": "CC(=O)N[C@@H](C)CC[C@@H]1CC[C@@H](Oc2nc3cnc(OCC(F)F)c(Cl)c3n2C)CO1", "target-system": "recombinant human ACC2 (Homo sapiens (Human), UniProt O00763)", "test-value": 0.78}
{"smiles-data": "CCOc1ccc2nc(O[C@H]3CC[C@H](OC[C@H](C)NC(C)=O)CC3)n(C(C)C)c2c1", "target-system": "recombinant human ACC2 (Homo sapiens (Human), UniProt O00763)", "test-value": 2.54}
{"smiles-data": "CC(=O)N[C@@H](C)CO[C@H]1CC[C@H](Oc2nc3cnc(OC[C@H](C)F)c(Cl)c3n2C)CC1", "target-system": "recombinant human ACC2 (Homo sapiens (Human), UniProt O00763)", "test-value": 1.04}
{"smiles-data": "CC(=O)N[C@@H](C)CO[C@H]1C[C@H](COc2ccc3nc(O[C@@H]4CO[C@@H]5CCO[C@@H]54)sc3n2)C1", "target-system": "recombinant human ACC2 (Homo sapiens (Human), UniProt O00763)", "test-value": 2.99}
{"smiles-data": "CC(=O)N[C@@H](C)CO[C@H]1C[C@H](COc2ncnc(OCc3nccs3)c2Cl)C1", "target-system": "recombinant human ACC2 (Homo sapiens (Human), UniProt O00763)", "test-value": 1.87}
